Every entry's value here was drawn from PubChem BioAssay (NCI).

Tested on: K-562 leukemia
procedure-details: NCI-60 one-dose screen, 48 h
protocol-conditions: 10 µM unless noted
Description: Cells are grown in 96 well plates and exposed to the test compound for 48 hours. Compounds are tested at a single concentration, which is 10^-5 M for most compounds. The reported endpoint is percent growth (GI% or GIPRCNT), where numbers from 0 - 100% represent growth inhibition, and numbers from -100% - 0 represent cell death. For example, a value of 40 represents 60% growth inhibition. A value of 0 means no net growth occurred over the course of the experiment. […]
The panel holds about 83,000 compounds, 20% with a hit somewhere; the sample as a whole holds those more often. Activity calls are given as the source filed them. The calls were made as follows: active = growth percent below 10; inactive = the rest.
Please reply with one of these outcomes: active, inactive

- O=C1c2cccc3cccc(c23)C(=O)N1N1C(=O)c2cccc3c(N4CCOCC4)ccc(c23)C1=O: inactive
- NC(=O)CCC(C(=O)O)N1C(=O)c2ccc(O)cc2C1=O (stereo not given): inactive
- CCC(=C(c1ccc(OCCN2CCCC2)cc1)c1ccc(OCCN2CCCC2)cc1)c1ccc(Cl)cc1: active
- COc1ccc(C(=O)Nc2cccc(C3CC(=O)c4c(cc(OC)c(OC)c4OC)O3)c2)cc1 (stereo not given): active

Please look at the following compound next.
Exercise: So what was the verdict on CCCCN[C@H]1CC[C@@]2(C)[C@@H](CC[C@@]3(C)[C@H]2[C@H](O)C[C@H]2/C(=C(\CCC=C(C)C)C(=O)OC)[C@@H](OC(C)=O)C[C@@]23C)[C@@H]1C in this test?
Key: inactive

====

Tested on: HCC-2998 colon
procedure-details: NCI-60 one-dose screen, 48 h (100 = growth as untreated, 0 = no growth, -100 = all killed)
protocol-conditions: 10 µM unless noted
Compounds without any hit were thinned out: in the full panel of roughly 83,000, 20% have a hit.
assay-readout: growth (%)
Could you give me the number in %? Just the number is fine.

Here's what some known entries look like.
- O=C1/C(=C/c2ccc(Cl)cc2)COc2ccc(O)c(O)c21: 5.98
- CC1(C)c2[nH]c3ccccc3c2C[C@]2(C)[C@H]3CC=C4[C@@H]5C[C@@](C)(C(N)=O)CC[C@]5(C)CC[C@@]4(C)[C@]3(C)CC[C@@H]12: 69.6
- O=C(NNC(=O)c1ccc(-n2cc(-c3ccccc3)nn2)cc1)Nc1ccccc1: 116

In the following, a different compound is considered.
Exercise: Look up and state reported growth for O=C(Nn1c2c(sc1=NCc1ccccc1)C(=O)c1ccccc1C2=O)c1cc2ccc1CCc1ccc(cc1)CC2
Key: 101

====

Tested on: CCRF-CEM leukemia
procedure-details: NCI-60 one-dose screen, 48 h
protocol-conditions: 10 µM unless noted
About 83,000 compounds went through this panel and 20% of them were active in at least one assay; those are over-represented in the sample as a whole. The source made the active and inactive calls. The calls were made as follows: active = growth percent below 10; inactive = the rest.
Please reply with one of these outcomes: 1.0 for active, 0.0 for inactive

Example results:
• N#Cc1cnc(NCCc2ccncc2)nc1-n1cnc2ccccc21 = 0.0
• COc1ccc(-c2nnc(-c3ccc4c(c3)nc(-c3ccncc3)n4C3CCCCC3)o2)cc1 = 0.0
• Oc1c(Cl)cc(Cl)c2ccc(Cn3cc(-c4cc(C(F)(F)F)cc(C(F)(F)F)c4)nn3)nc12 = 1.0
• CN(C)c1ccc(/C=C/C(=O)c2ccc(-n3cc(CN4CCN(c5cc6c(cc5F)c(=O)c(C(=O)O)cn6C5CC5)CC4)nn3)cc2)cc1 = 0.0
• Cc1cc(Cl)ccc1NC(=O)c1cc2ccccc2cc1O = 1.0
• C=CCc1c(O)c(C(=O)/C=C/c2ccc(Cl)cc2)c(OC)c2ccoc12 = 0.0

Please look at the following compound next.
Exercise: So what was the verdict on COC(C(=O)[C@@H](O)[C@@H](C)O)[C@@H]1Cc2cc3cc(O[C@H]4C[C@@H](O[C@H]5C[C@@H](O)[C@H](O)C(C)O5)[C@H](O)C(C)O4)c(C)c(O)c3c(O)c2C(=O)[C@H]1O[C@H]1C[C@@H](O[C@H]2C[C@@H](O[C@H]3C[C@@H](O)[C@H](OC)C(C)O3)[C@@H](O)C(C)O2)[C@H](O)C(C)O1 (some centres not stated) in this test?
Key: 1.0
